- EXPERIMENT_NOTES: Half life at 7.4 pH
- Type: ADME
- DETAILS: pH 7.4
# label = Criterion met if half-life >= 6 h else Criterion not met

Oc1ccc([C@H]2N=CN[C@H]2c2c(Cl)cc(O)cc2Cl)c(Cl)c1 : Criterion met

**Q:** # check: half-life of `COc1ccc([C@H]2N=CN[C@H]2c2ccc(OC)cc2Cl)c(Cl)c1` is greater than or equal to 6 h
**A:** Criterion not met

**Q:** # check: half-life of `CCN1C=N[C@@H](c2ccc(O)cc2Cl)[C@H]1c1ccc(O)cc1Cl` is greater than or equal to 6 h
**A:** Criterion met

**Q:** # check: half-life of `Oc1ccc([C@H]2N=CN[C@H]2c2ccc(O)cc2)cc1` is greater than or equal to 6 h
**A:** Criterion met

The origin of these recorded values is ChEMBL document CHEMBL1148415.
